# Tested on: HeLa
# ASSAY REMARKS: Primary qHTS to identify gynecologic anti-cancer compounds using libraries of approved drugs and bioactive compounds (AID 1345084); note: % is set by controls: 0 for no effect and ±100 for the full control effect; nearly all actives have a fitted effect of over 55% in size
# STATED CONDITIONS: Gynecologic cancer cell panel viability, ATPlite luminescence, 48 h; series mostly up to 57.5 µM
Inconclusive results are not listed. Active and inactive are the calls of the source. Calls come from the whole dose curve; as a rule, active = well fitted cell-killing curve with a large enough effect; inconclusive = small, poorly fitted or top-dose-only effect, or effect the other way; inactive = flat fitted curve, though single readings scatter.
ENDPOINT LABEL: activity change, negative = cytotoxicity

Answered examples (8):
{"columns": ["COMPOUND", "SYSTEM UNDER TEST", "ENDPOINT LABEL", "RECORDED RESULT"],
 "data": [
  ["CC1(CO)CCCC2(C)C3COC(=O)C3=CC(O)C12 (centres undefined)", "HeLa", "activity change, negative = cytotoxicity", "inactive"],
  ["Cc1ccc(-c2c(-c3nn(C)c4ncnc(N5CC[C@H](N6CCCCC6)C5)c34)cnn2C)cc1", "HeLa", "activity change, negative = cytotoxicity", "inactive"],
  ["C[C@@H]1O[C@@H](O[C@H]2[C@@H]3C=CO[C@@H](O[C@@H]4O[C@H](CO)[C@@H](O)[C@H](O)[C@H]4O)[C@@H]3[C@@]3(CO)O[C@@H]23)[C@H](O)[C@H](OC(=O)/C=C/c2ccc(O)c(O)c2)[C@H]1O", "HeLa", "activity change, negative = cytotoxicity", "inactive"],
  ["COc1cc(C)c(C(=O)NC2C(C)OC(OC3CCC(C)C4C3C=C(C)C3/C(C)=C\\CC/C(C)=C/C5(C)C=C(C(=O)O)C(C)CC56OC(=O)/C(=C(\\O)C34C)C6=O)C(O)C2(C)O)c(O)c1 (centres undefined)", "HeLa", "activity change, negative = cytotoxicity", "2.6% [at 11.6 µM] (inactive)"],
  ["COc1ccnc(CCc2nc3ncccc3[nH]2)c1", "HeLa", "activity change, negative = cytotoxicity", "inactive"],
  ["O=C(O[C@H]1[C@H](Oc2ccc(O)cc2CO)O[C@H](CO)[C@@H](O)[C@@H]1O)c1ccccc1", "HeLa", "activity change, negative = cytotoxicity", "inactive"],
  ["C/C=C(/C)C(=O)OC1C(OC(C)=O)C23C(O)OC4(CCC5C6(C)CCC(OC7OC(C(=O)O)C(O)C(OC8OC(CO)C(O)C(O)C8OC8OC(C)C(O)C(O)C8OC8OCC(O)C(O)C8O)C7OC7OC(CO)C(O)C(O)C7O)C(C)(C)C6CCC5(C)C4(C)CC2OC(C)=O)C3CC1(C)C (centres undefined)", "HeLa", "activity change, negative = cytotoxicity", "-3.79% [at 6.55 µM] (inactive)"],
  ["COc1cc2c(cc1O)C(c1ccc(O)cc1)C(C)C(C)C2 (centres undefined)", "HeLa", "activity change, negative = cytotoxicity", "inactive"]
]}

We now examine a further compound.
Query CC(C)c1ccc2c(c1)C(=O)CC1C(C)(C(=O)O)CCCC21C (centres undefined) yields activity change, negative = cytotoxicity of inactive

Origin of values: PubChem BioAssay (NCATS)
